- subjectOfTest: extracellular domain of SARS‐CoV‐2 spike protein (ECD) (SARS‐CoV‐2, UniProt P0DTC2 14-1213)
- protocolNotes: ELISA
attributeMeasured: Kd

{"binder": "h‐deface2 (designed binder) EFHGPSWCLTPADRGLCRANENRFYYNSVIGKCRPFKYSGCGGNENNFTSKDKCLHECKKG", "attributeMeasured": "Kd", "reportedValue": "54.4 nM"}
